These data points were gathered from the supplement of paper PMC12764529.

This listing pairs sequences with measured folding stability dG unfold.
ASSAY TEXT: folding stability dG unfold from trypsin proteolysis; higher = more stable

Answered cases to consult:
SAGGSAGGNMIPVKARMKWPDGKEFPFEIMVQYQPDGQMQIEIQNPGDGETVTFPNMKLIDVEISAGGSAGG [r6_255_TrROS] :: -0.656 kcal/mol
SAGGSAGGSSYTVSEDPNSSSTTITDPVTGRTVLRSPSSWTVVDPETGEEKSFPAGTVVTLPESAGGSAGGS [r12_584_JUSTAS] :: -0.146 kcal/mol
SAGGSAGGSMTETVEKAPDGTPVLVLKETEESTGDGGKTILRPSTVLLPPGTVLSTEDEVILESAGGSAGGS [r12_581_JUSTAS] :: 0.944 kcal/mol

Field: next sequence
Please give the measured folding stability dG unfold for this sequence: SAGGSAGGSAGGDKNKPPKLKVKLKIEFPFTLPDGVKVRLEVEIDLDSDVIEPRAEVIDSSAGGSAGGSAGG [r7_213_TrMRF]
1.76 kcal/mol
